Recorded values, source patent US20030087906A1.

system: CAKI-1; experiment: NCI 60-cell line growth inhibition assay; type: cell-based; settings: Homo sapiens; CAKI-1 (Renal)
Property name: GI50 (µM)
Write the number in µM without appending the unit.

Example entries begin here.
{"columns": ["Compound", "GI50, µM"],
 "data": [
  ["CC[C@H](CO)Nc1nc(NCc2ccc(-c3ccc(OC)cc3)cc2)c2ncn(C(C)C)c2n1 [Compound 43]", 3],
  ["Cn1cnc2c(NCc3ccccc3)nc(NCCO)nc21 [Olomoucine, reference compound]", 32],
  ["CC(=O)N[C@H]1CC[C@H](Nc2nc(NCc3ccc(-c4ccccc4)nc3)c3ncn(C(C)C)c3n2)CC1 [Compound 87]", 0.064]
]}

Problem: Note GI50 for the compound shown: CC(C)n1cnc2c(NCc3ccc(-c4ccccn4)cc3)nc(N[C@H]3CC[C@H](N)CC3)nc21 [Compound 78]
Solution: 0.79
